# System: wild-type bacterial ribosome
# procedure summary: Cell-free translation assay, wild-type bacterial ribosome
# Assay type: biochemical
# protocol conditions: in vitro translation inhibition

molecule	IC50 wt / µg/mL
CCC[C@H]1[C@H](O)[C@@H](N)[C@@H](O[C@H]2[C@H](O[C@@H]3O[C@H](CO)[C@@H](O[C@H]4O[C@@H](CN)[C@@H](O)[C@H](O)[C@H]4N)[C@H]3O)[C@@H](O)[C@H](N)C[C@@H]2N)O[C@@H]1CO [Compound 5, 4’-deoxy-4’-propylparomomycin]	0.03
NC[C@@H]1O[C@H](O[C@H]2[C@@H](O)[C@H](O[C@@H]3[C@@H](O)[C@H](N)C[C@H](N)[C@H]3O[C@H]3O[C@H](CO)C[C@H](O)[C@H]3N)O[C@@H]2CO)[C@H](N)[C@@H](O)[C@@H]1O [Compound 2, 4’-deoxy paromomycin]	0.05

====

# Tested on: Cyt14 hybrid ribosome (decoding A site of the human cytoplasmic ribosome)
# Type: biochemical
# protocol conditions: in vitro translation inhibition, Cyt14 hybrid ribosome
readout name: IC50 Cyt 14 (µg/mL)

compound	readout name	units	recorded value
CCC[C@H]1[C@H](O)[C@@H](N)[C@@H](O[C@H]2[C@H](O[C@@H]3O[C@H](CO)[C@@H](O[C@H]4O[C@@H](CN)[C@@H](O)[C@H](O)[C@H]4N)[C@H]3O)[C@@H](O)[C@H](N)C[C@@H]2N)O[C@@H]1CO [Compound 5, 4’-deoxy-4’-propylparomomycin]	IC50 Cyt 14	µg/mL	64
NC[C@@H]1O[C@H](O[C@H]2[C@@H](O)[C@H](O[C@@H]3[C@@H](O)[C@H](N)C[C@H](N)[C@H]3O[C@H]3O[C@H](CO)C[C@H](O)[C@H]3N)O[C@@H]2CO)[C@H](N)[C@@H](O)[C@@H]1O [Compound 2, 4’-deoxy paromomycin]	IC50 Cyt 14	µg/mL	28
NCC1OC(OC2C(CO)OC(OC3C(O)C(N)CC(N)C3OC3OC(CO)C(CC(O)CO)C(O)C3N)C2O)C(N)C(O)C1O (centres unmarked) [Compound 37]	IC50 Cyt 14	µg/mL	59
CCSC1C(CO)OC(OC2C(N)CC(N)C(O)C2OC2OC(CO)C(OC3OC(CN)C(O)C(O)C3N)C2O)C(N)C1O (centres unmarked) [Compound 4, 4’-deoxy-4’-ethylthioparomomycin]	IC50 Cyt 14	µg/mL	60
CN[C@@H]1[C@@H](O)[C@@H](O[C@@H]2[C@@H](O)[C@H](O[C@H]3OC(CNCCO)=CC[C@H]3N)[C@@H](N)C[C@H]2NC(=O)[C@@H](O)CCN)OC[C@]1(C)O [Plazomicin, reference compound]	IC50 Cyt 14	µg/mL	419

====

# Tested on: E. coli
# procedure summary: Antibacterial activity against reference strains: E. coli
# protocol conditions: Escherichia coli, read-out: Antibacterial activity (MIC) E. coli AG001
Recorded MIC for the following compounds

compound	MIC (µg/mL)
CN[C@@H]1[C@@H](O)[C@@H](O[C@@H]2[C@@H](O)[C@H](O[C@H]3OC(CNCCO)=CC[C@H]3N)[C@@H](N)C[C@H]2NC(=O)[C@@H](O)CCN)OC[C@]1(C)O [Plazomicin, reference compound]	2
NCC[C@H](O)C(=O)N[C@@H]1C[C@H](N)[C@@H](O[C@H]2O[C@H](CN)[C@@H](O)[C@H](O)[C@H]2O)[C@H](O)[C@H]1O[C@H]1O[C@H](CO)[C@@H](O)[C@H](N)[C@H]1O [Amikacin]	2
